Data credit: patent US9440957B2

molecules and their reported log10(IC50)
Biological target: HEKn (EGFR WT) (Homo sapiens, UniProt P00533)
Sequence (P00533 25-1210): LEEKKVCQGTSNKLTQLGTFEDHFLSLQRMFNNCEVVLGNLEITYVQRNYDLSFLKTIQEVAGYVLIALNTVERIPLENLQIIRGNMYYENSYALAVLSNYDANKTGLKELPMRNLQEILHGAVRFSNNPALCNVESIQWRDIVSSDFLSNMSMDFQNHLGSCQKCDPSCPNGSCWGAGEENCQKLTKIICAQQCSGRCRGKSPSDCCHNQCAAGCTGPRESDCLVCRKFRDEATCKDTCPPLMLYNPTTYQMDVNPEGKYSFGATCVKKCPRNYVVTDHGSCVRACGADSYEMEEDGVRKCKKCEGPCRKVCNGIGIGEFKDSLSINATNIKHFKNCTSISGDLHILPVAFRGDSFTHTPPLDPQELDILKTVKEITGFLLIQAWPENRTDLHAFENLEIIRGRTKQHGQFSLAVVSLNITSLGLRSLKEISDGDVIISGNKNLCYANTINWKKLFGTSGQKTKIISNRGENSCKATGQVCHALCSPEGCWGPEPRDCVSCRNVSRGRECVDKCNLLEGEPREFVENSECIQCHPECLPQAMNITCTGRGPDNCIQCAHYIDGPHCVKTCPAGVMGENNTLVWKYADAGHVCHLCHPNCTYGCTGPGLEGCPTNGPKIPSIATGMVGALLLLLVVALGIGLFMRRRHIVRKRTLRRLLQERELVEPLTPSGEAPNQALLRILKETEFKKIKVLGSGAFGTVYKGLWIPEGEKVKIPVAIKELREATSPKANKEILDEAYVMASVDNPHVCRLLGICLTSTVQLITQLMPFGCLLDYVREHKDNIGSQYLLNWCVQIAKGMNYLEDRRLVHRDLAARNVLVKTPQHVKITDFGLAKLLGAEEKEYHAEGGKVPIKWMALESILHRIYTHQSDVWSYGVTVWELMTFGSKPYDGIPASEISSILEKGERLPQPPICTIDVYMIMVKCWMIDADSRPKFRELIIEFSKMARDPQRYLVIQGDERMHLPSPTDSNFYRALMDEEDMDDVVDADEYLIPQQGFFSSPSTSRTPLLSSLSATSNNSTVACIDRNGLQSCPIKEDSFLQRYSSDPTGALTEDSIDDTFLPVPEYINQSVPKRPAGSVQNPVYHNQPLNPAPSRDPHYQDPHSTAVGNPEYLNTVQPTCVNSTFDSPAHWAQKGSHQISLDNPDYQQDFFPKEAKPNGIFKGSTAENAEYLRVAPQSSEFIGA
Test: EGFR target modulation in HEKn (EGFR-WT) cell line (phospho-EGFR Y1173 ELISA)
Details: value outside parentheses
All values: base-10 log of IC50 in µM.

These recorded examples may help you get a feel for the data.
# Molecule, Reading
records = [
    ("Cc1cccc2nc(NC(=O)c3cccc(S(C)(=O)=O)c3)n(C3CCCCN(C(=O)/C=C/CN(C)C)C3)c12 (centres unmarked)", -0.49),
    ("C=CC(=O)N1CCCC[C@@H](n2c(NC(=O)c3cc(C)nc(C)c3)nc3cc(CN4CC[C@H](F)C4)cc(C)c32)C1", -1.09),
    ("Cc1cccc2nc(NC(=O)c3ccc(F)cc3)n(C3CCCCN(C(=O)/C=C/CN(C)C)C3)c12 (centres unmarked)", -0.72),
    ("Cc1cccc2nc(NC(=O)c3ccnc(-c4ccccc4)c3)n([C@@H]3CCCCN(C(=O)/C=C/CN(C)C)C3)c12", -1.85),
    ("Cc1ccc(C(=O)Nc2nc3cccc(C)c3n2C2CCCCN(C(=O)/C=C/CN(C)C)C2)cn1 (centres unmarked)", -0.73),
    ("O=C(Nc1nc2cccc(Cl)c2n1[C@@H]1CCCCN(C(=O)/C=C/CN2CC[C@@H](F)C2)C1)c1ccnnc1", -0.77),
    ("Cc1cccc2nc(NC(=O)c3cncc(-n4cccc4)c3)n([C@@H]3CCCCN(C(=O)/C=C/CN(C)C)C3)c12", -0.73),
    ("C=CC(=O)N1CCCC[C@@H](n2c(NC(=O)c3cnnc(C)c3)nc3cc(CN4CCCC4)cc(C)c32)C1", -0.57),
    ("C=CC(=O)N1CCCC[C@@H](n2c(NC(=O)c3cc(C)nc(C)c3)nc3cc(CN4CCCC4)cc(C)c32)C1", -0.58),
]

Turning now to a further molecule:
Return the recorded log10(IC50) value; entry: COc1cncc(C(=O)Nc2nc3cccc(C)c3n2[C@@H]2CCCCN(C(=O)/C=C/CN(C)C)C2)c1
-0.75
